Experiment: DESC stability in biological media (HPLC, cell-free)
Assay type: physicochemical
Conditions: imem medium, 37° C., 5% CO2, cell-free, read-out: Fraction of compound decomposed
READOUT_LABEL: degraded at 48 h, 50 µM (%)
Response body: numeric value in %, unit text excluded.

Problem: Could you tell me which degraded at 48 h, 50 µM is on file for NCCCNCCCC(NCCCN)C(=O)NCCSSCCNC(=O)C(CCCNCCCN)NCCCN (stereo not shown) ?
Result: 40
